Items are presented alongside their recorded Selectivity Index.
- Test system: HEK293 cells
- protocolDetails: in vitro
- Type: cell-based
- conditions: LC50/MIC (HEK293 / S. aureus)
Write no unit; give the number alone.

CCOc1ccc(-c2[nH]nc(C(F)(F)F)c2-c2ccc(Cl)cc2)c(O)c1 | 3.47
CCOc1ccc(-c2[nH]nc(C(F)(F)F)c2-c2ccc(OC)cc2)c(O)c1 | 1.05
Oc1ccc(-c2n[nH]c(C(F)(F)F)c2-c2ccc(Cl)cc2)c(O)c1 | 4.13

For the molecule shown here, `COc1ccc(-c2[nH]nc(C(F)(F)F)c2-c2ccccc2OC)c(O)c1` , give the reported Selectivity Index. 0.50

For the molecule shown here, `COc1ccc(-c2c(C(F)(F)F)n[nH]c2-c2ccc(OC)cc2O)cc1` , give the reported Selectivity Index. 2.39

The reported measurements were obtained from paper PMC11302729.
